Values compiled from patent US20220177587A1.

# target of assay: CD28 (Homo sapiens, UniProt P10747)
# assay method text: Flow binding to Jurkat/IL2 reporter cells (CD28)
# Design: host or cells: Jurkat cells expressing an IL-2-luciferase reporter
# protocol conditions: Table E4; MFI ratio to WT CD80 ECD-Fc (R&D) at 33.3 nM
Entries and their CD28 Fold change to WT CD80
Simply state the number, no unit and no words.

>  <molecule>
E35D/D46E/M47V/N63D/L85Q (protein, UniProt P33681 35-288, looked up, variant E35D D46E M47V N63D L85Q) T-lymphocyte activation …: VIHVTKEVKEVATLSCGHNVSVEELAQTRIYWQKDKKMVLTMMSGEVNIWPEYKNRTIFDITDNLSIVILALRPSDEGTYECVVQKYEKDAFKREHLAEVTLSVKADFPTPSISDFEIPTSNIRRIICSTSGGFPEPHLSWLENGEELNAINTTVSQDPETELYAVSSKLDFNMTTNHSFMCLIKYGHLRVNQTFNWNTTKQEHFPDNLLPSWAITLISVNGIFVICCLTYCFAPRCRERRRNERLRRESVRPV

>  <CD28 Fold change to WT CD80>
0.07

$$$$
>  <molecule>
E35D/M47V/N48KN68M/K89N (protein) VIHVTKEVKEVATLSCGHNVSVEELAQTRIYWQKDKKMVLTMMSGDVKIWPEYKNRTIFDITNNLSIMILALRPSDEGTYECVVLKYENDAFKREHLAEVTLSVKAD

>  <CD28 Fold change to WT CD80>
0.65

$$$$

# next molecule below
For the molecule E35D/T41S/M43V/M47I/L70M/A71G (protein, UniProt P33681 35-288, looked up, variant E35D T41S M43V M47I L70M A71G, Fc fusion) T-lymphocyte activation …: VIHVTKEVKEVATLSCGHNVSVEELAQTRIYWQKDKKMVLSMVSGDINIWPEYKNRTIFDITNNLSIVIMGLRPSDEGTYECVVLKYEKDAFKREHLAEVTLSVKADFPTPSISDFEIPTSNIRRIICSTSGGFPEPHLSWLENGEELNAINTTVSQDPETELYAVSSKLDFNMTTNHSFMCLIKYGHLRVNQTFNWNTTKQEHFPDNLLPSWAITLISVNGIFVICCLTYCFAPRCRERRRNERLRRESVRPV , report CD28 Fold change to WT CD80.
0.15
